target: human LTA4 hydrolase (Homo sapiens (Human))
Sequence (P09960 whole entry): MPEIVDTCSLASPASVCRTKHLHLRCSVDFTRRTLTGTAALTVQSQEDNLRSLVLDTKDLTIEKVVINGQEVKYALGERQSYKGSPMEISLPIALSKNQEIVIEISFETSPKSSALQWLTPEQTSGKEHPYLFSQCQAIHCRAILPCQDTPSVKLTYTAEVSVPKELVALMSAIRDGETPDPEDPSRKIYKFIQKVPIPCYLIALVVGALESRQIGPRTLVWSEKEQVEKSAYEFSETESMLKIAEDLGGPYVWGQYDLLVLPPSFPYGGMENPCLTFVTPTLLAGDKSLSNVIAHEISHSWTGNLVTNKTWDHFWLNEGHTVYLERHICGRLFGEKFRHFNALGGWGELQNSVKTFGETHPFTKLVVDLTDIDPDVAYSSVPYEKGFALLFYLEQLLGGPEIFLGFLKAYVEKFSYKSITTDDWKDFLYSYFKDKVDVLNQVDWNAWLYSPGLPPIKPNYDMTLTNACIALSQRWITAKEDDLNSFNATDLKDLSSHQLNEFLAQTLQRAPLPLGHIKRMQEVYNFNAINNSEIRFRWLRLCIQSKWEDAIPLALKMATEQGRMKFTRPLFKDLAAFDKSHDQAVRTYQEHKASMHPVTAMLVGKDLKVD
# IC50 per record follows
Record the value in nM, omitting the unit from your answer.

Some solved entries appear below for comparison.
What IC50 value was documented for this compound, "CS(=O)(=O)N1CCN(CCc2coc3cc(Oc4ccc(-c5ccn[nH]5)cn4)ccc23)CC1" ? 1.4

What IC50 value was documented for this compound, "CN(C(=O)CO)[C@H]1CCN(Cc2ccc3cc(Oc4ccc(-c5ccn[nH]5)cn4)ccc3n2)C1" ? 0.86

What IC50 value was documented for this compound, "O=C([C@H]1CCCO1)N1CCN(Cc2ccc3cc(Oc4ccc(-c5ccn[nH]5)cn4)ccc3n2)CC1" ? 2.9

What IC50 value was documented for this compound, "CN(Cc1ccc2cc(Oc3ccc(-c4ccn[nH]4)cn3)ccc2c1)[C@@H]1CCN(C(=O)CO)C1" ? 0.63

What IC50 value was documented for this compound, "CC(=O)N[C@@H]1CCN(Cc2ccc3cc(Oc4ccc(-c5ccn[nH]5)cn4)ccc3c2)C1" ? 0.34

Further cases:
What IC50 value was documented for this compound, "CC(=O)N1CCC(NCc2coc3cc(Oc4ccc(-c5ccn[nH]5)cn4)ccc23)CC1" ? 0.71

What IC50 value was documented for this compound, "C[C@@H](O)C(=O)N1CC2CCC(C1)N2Cc1ccc2cc(Oc3ccc(-c4ccn[nH]4)cn3)ccc2n1" ? 0.54

What IC50 value was documented for this compound, "OC[C@H]1CCN(Cc2ccc3cc(Oc4ccc(-c5ccn[nH]5)cn4)ccc3c2)C1" ? 0.76
